measurementProtocol: Elimination half life in CD1 albino mouse brain at 10 mg/kg, ip
Format: ADME, organism-based
Parameters: dose 10 mg/kg, route intraperitoneal
condition: read-out: beta t1/2
testReadout: half-life
Answer with the number, then the unit.

Look over these answered cases.
| sampleSmiles | assayResult |
| --- | --- |
| c1ccc(-c2ccccc2N2CCNCC2)cc1 | 1.45 h |
| CSc1ccccc1N1CCNCC1 | 1 h |

Need half-life, item `N#Cc1ccc(CNC(=O)CCCCCN2CCN(c3ccccc3-c3ccccc3)CC2)cc1` 1.15 h
